# key: entry, value: EC50
Target: α1β1γ2 GABAA receptor (Homo sapiens, UniProt P14867+P18505+P18507)
Construct: GeneCopoeia (γ2 cDNA)
Sequence (P14867 28-456): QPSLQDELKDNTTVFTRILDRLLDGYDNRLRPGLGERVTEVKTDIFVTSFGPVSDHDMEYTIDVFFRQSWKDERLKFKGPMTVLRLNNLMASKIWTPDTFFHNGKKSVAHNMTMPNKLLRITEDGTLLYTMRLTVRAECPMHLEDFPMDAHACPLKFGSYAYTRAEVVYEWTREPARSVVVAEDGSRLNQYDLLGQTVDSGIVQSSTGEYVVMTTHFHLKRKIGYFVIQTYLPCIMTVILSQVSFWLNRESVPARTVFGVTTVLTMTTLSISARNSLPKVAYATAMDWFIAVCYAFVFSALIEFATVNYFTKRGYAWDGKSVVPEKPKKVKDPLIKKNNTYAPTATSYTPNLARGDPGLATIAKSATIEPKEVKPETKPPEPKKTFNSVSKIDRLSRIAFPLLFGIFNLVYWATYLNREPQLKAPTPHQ
Sequence (P18505 26-474): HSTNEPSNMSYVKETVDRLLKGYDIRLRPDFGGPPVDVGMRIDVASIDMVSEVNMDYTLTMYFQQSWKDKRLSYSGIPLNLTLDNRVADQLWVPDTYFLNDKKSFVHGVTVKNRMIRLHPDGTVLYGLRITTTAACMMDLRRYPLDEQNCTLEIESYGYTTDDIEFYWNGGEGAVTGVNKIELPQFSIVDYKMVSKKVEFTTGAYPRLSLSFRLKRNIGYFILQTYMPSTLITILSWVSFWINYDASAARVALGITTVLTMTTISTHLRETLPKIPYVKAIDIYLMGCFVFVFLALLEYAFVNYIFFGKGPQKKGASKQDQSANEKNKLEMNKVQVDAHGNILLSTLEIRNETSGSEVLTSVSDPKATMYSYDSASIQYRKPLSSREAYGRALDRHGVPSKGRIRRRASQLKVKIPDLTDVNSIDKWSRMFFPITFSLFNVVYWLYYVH
Sequence (P18507 40-475): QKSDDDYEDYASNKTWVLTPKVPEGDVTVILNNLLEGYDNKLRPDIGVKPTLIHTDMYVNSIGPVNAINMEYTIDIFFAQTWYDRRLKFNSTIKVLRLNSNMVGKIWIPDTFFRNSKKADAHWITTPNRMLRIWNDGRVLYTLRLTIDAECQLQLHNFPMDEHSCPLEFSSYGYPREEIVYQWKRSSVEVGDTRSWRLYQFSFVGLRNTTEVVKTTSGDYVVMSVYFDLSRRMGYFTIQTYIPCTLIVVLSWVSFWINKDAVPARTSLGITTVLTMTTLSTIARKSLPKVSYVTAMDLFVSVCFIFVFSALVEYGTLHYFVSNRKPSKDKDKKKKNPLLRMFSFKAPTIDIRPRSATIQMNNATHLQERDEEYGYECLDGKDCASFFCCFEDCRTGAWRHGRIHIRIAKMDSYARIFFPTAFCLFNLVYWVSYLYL
Assay: Two-electrode voltage-clamp recording of GABAA receptors expressed in Xenopus oocytes
Protocol: The cDNAs encoding human GABAA receptor α1 and β1 subunits were acquired from American Type Culture Collection (ATCC, Manassas, Virginia), while those encoding γ2 subunits were acquired from GeneCopoeia (Rockville, Maryland). Restriction enzymes for the cDNAs came from New England Biolabs (Ipswich, MA). […] After 24 h following injections, oocytes were placed in a recording chamber perfused continuously with ND96. […] Currents were recorded using the iWorx LabScribe v1.959 software. […]
// units = µM; emit number, no label

CCC(C)C1OC2(CCC1C)CC1CC(CC=C(C)C(OC3CC(OC)C(OC4CC(OC)C(O)C(C)O4)C(C)O3)C(C)C=CC=C3COC4C(O)C(C)=CC(C(=O)O1)C34O)O2 (centres unmarked) ... 7.1

Value lookup for EC50; key = CC(=O)[C@H]1CC[C@H]2[C@@H]3CC[C@H]4C[C@H](O)CC[C@]4(C)[C@H]3CC[C@]12C [ALLOP, 3α-hydroxy-5α-pregnan-20-one] 0.9
